Test system: MS2 coat protein
method summary: apparent Kd, MS2 coat protein; higher = weaker binding; RNA-MaP array; FMN 200 µM where present
condition info: ligand present: flavin mononucleotide; designed as: ON switch for flavin mononucleotide
Entries and their measured apparent Kd follow.
observable: apparent Kd (nM)

[
  {
    "residue codes": "GGGUACAUCGGAGGAUAUCAUGUAUAGACAUGAGGAUCACCCAUGUCGUACGAGAGUACGGAGAUUGAGAAGGCCGAUGUACCG",
    "target of assay": "MS2 coat protein",
    "observable": "apparent Kd",
    "assay result": 17.3
  },
  {
    "residue codes": "GUAGAACAUGAGGAUCACCCAUGUGAAGACGCAUGAGGAUAUAUCCGUACCUAGCAUACGAUAGAAGGCAUGAUAC",
    "target of assay": "MS2 coat protein",
    "observable": "apparent Kd",
    "assay result": 49.7
  },
  {
    "residue codes": "GAGUGGAAGGCCGCUACAUGAGGAUCACCCAUGUGCUAAGCACAGGAUAUCGCGUGGGCCCGACGCGAGAAGGGUGACGGCCUG",
    "target of assay": "MS2 coat protein",
    "observable": "apparent Kd",
    "assay result": 246
  }
]

Data provenance is the EternaBench riboswitch data.
